Subject of test: Neuronal acetylcholine receptor
Assay comment: Ability to displace radioligand [3H](-)-cytisine from Nicotinic acetylcholine receptor in rat brain membrane.
Response field label: string, one of yes (1) (Ki strictly below 20 nM) or no (0).

Reference set, count: 8
CC[C@H](N)COc1cnc(Cl)c(Br)c1
yes (1)
CNCCOc1cnc(Cl)c(Cl)c1
yes (1)
CN(C)CCOc1cnc(Cl)c(Cl)c1
yes (1)
CN[C@H](COc1cnc(Cl)c(Br)c1)Cc1ccccc1
no (0)
CN(C)CCOc1cncc(C(F)(F)F)c1
no (0)
CNCCOc1cncc(N)c1
no (0)
CNCCOc1cccnc1
yes (1)
CNCCOc1ccc(Cl)nc1
no (0)

(Q) Could you please tell me whether Ki recorded for CN(C)[C@H](COc1cnc(Cl)c(/C=C/c2ccncc2)c1)Cc1ccccc1 is less than 20 nM?
(A) yes (1)

(Q) Could you please tell me whether Ki recorded for CC[C@H](N)COc1cnc(Cl)c(/C=C/c2ccncc2)c1 is less than 20 nM?
(A) yes (1)
